- ASSAY_DETAILS: recombinant UMI read abundance after kanamycin selection (control-corrected) (log10(CPM+1)); higher = more efficient recombination; extreme values may be limits of the assay; sequences stand for … in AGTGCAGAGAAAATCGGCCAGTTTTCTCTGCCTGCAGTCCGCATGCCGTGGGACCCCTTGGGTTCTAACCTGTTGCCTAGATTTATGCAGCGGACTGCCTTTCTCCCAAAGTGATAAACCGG…AGGTTGGTTTCACT; site = the 11-nt donor;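 further: IS621 bridge recombinase in Escherichia coli cells against a fixed T5 target plasmid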
Each record here notes measured recombinant UMI read abundance (log10).

As a guide, the following entries are already answered.
1) AAGCTCGCATGGACCGGTTTTCCCGGTAATCCGTATTTGGG (site AAGCCCGCTCC)	0.0313
2) CTGCGACCATGGACCGGTTTTCCCGGTAATCCGTATTTGCT (site CTGCAACCTAG)	0

Q. Could you share which recombinant UMI read abundance (log10) value was measured for AAAAGTCCATGGACCGGTTTTCCCGGTAATCCGTATTTGTA (site TAAAGTCCTTA) ?
A. 1.12

Q. Could you share which recombinant UMI read abundance (log10) value was measured for TCTAGGTCATGGACCGGTTTTCCCGGTAATCCGTATTTGTT (site TCTAGGTCTAA) ?
A. 0

Q. Could you share which recombinant UMI read abundance (log10) value was measured for ACTAGTGCATGGACCGGTTTTCCCGGTAATCCGTATTTGGT (site ACTAGTTCTAC) ?
A. 0.264

Q. Could you share which recombinant UMI read abundance (log10) value was measured for CTCATATCATGGACCGGTTTTCCCGGTAATCCGTATTTGAC (site CTAGTATCTGT) ?
A. 0

Q. Could you share which recombinant UMI read abundance (log10) value was measured for CTCCCTACATGGACCGGTTTTCCCGGTAATCCGTATTTGAG (site CTCCCTACTGT) ?
A. 0

Q. Could you share which recombinant UMI read abundance (log10) value was measured for GCAGTATCATGGACCGGTTTTCCCGGTAATCCGTATTTGGA (site GCAGTATCTTC) ?
A. 2.1

Q. Could you share which recombinant UMI read abundance (log10) value was measured for CTGCGACCATGGACCGGTTTTCCCGGTAATCCGTATTTGCT (site CTGCGACCTAG) ?
A. 0
